- TARGET_UNDER_TEST: Human GPR40 (Homo sapiens (Human), UniProt O14842)
- Sequence (O14842 whole entry): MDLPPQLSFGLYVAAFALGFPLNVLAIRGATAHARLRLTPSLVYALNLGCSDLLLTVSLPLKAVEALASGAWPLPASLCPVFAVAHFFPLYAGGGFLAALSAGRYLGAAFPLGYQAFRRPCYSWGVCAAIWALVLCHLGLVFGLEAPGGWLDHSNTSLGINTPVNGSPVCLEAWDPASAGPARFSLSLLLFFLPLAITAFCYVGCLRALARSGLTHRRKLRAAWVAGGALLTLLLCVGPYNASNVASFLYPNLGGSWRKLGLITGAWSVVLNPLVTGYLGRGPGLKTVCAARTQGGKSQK
- PROCEDURE_DETAILS: Inositol Phosphate Turnover (IP1) Assay 1, HEK cells stably expressing human GPR40, 3H-inositol SPA
- Assay type: cell-based
- MEASUREMENT_SETUP: HEK cells stably expressing human GPR40, 96-well
PROPERTY_NAME: EC50 (nM)

These solved cases illustrate the format of a correct answer.
COc1ccc(F)c([C@@H]2C[C@H]2COc2cccc([C@H](C3CC3)[C@H](C)C(=O)O)c2)c1 ... 34
O=C(O)C[C@H](c1cccc(OC2CC3(CCN(Cc4cc(C(F)(F)F)ccc4C(F)(F)F)C3)C2)c1)C1CC1 (single isomer, unassigned) [Example 5A] ... 4150

(a) O=C(O)C[C@H](c1cccc(OCC2CCN(Cc3cc(C(F)(F)F)ccc3C(F)(F)F)C2)c1)C1CC1 (stereo partly shown)
(b) O=C(O)C[C@H](c1cccc(OC2CCN(Cc3cc(C(F)(F)F)ccc3C(F)(F)F)C2)c1)C1CC1 (stereo partly shown)
Could you check which of a and b has a smaller value for EC50? In your reply, give the label of the chosen option.
a
(a: 560 nM, b: 1040 nM)

----------
- TARGET_UNDER_TEST: Human GPR40 (Homo sapiens (Human), UniProt O14842)
- PROCEDURE_DETAILS: Inositol Phosphate Turnover (IP1) Assay 1, HEK cells stably expressing human GPR40, 3H-inositol SPA
- Type: cell-based
- MEASUREMENT_SETUP: HEK cells stably expressing human GPR40, 96-well
PROPERTY_NAME: EC50 (nM)

These solved cases illustrate the format of a correct answer.
C[C@H](C(=O)O)[C@H](c1cccc(OCC2CCN(Cc3cc(C(F)(F)F)ccc3C(F)(F)F)CC2)c1)C1CC1 [Example 31] ... 77
O=C(O)C[C@H](c1cccc(OCC2CCCCN2Cc2cc(C(F)(F)F)ccc2C(F)(F)F)c1)C1CC1 (stereo partly shown) [Example 3] ... 8380
CC(C)Oc1ccccc1OC1CC(COc2cccc([C@H](C3CC3)[C@H](C)C(=O)O)c2)C1 (single isomer, unassigned) [Example 126] ... 147
CC1(C)CN(Cc2cc(C(F)(F)F)ccc2C(F)(F)F)CC1COc1cccc([C@@H](CC(=O)O)C2CC2)c1 (stereo partly shown) [Example 22] ... 2610
COc1ccnc(OC2CC(COc3cccc([C@H](C4CC4)[C@H](C)C(=O)O)c3)C2)c1 (single isomer, unassigned) [Example 104] ... 564

(a) COc1ccc(F)c(OC2CC(COc3cccc([C@H](C4CC4)[C@H](C)C(=O)O)c3)C2)c1 (single isomer, unassigned) [Example 80]
(b) CC(c1cc(F)ccc1Cl)N1CC(COc2cccc([C@@H](CC(=O)O)C3CC3)c2)C1 (stereo partly shown) [Example 51]
Would you let me know which has the greater EC50 value, a or b ? In your reply, give the label of the chosen option.
b
(b: 449 nM, a: 12 nM)

----------
- TARGET_UNDER_TEST: Human GPR40 (Homo sapiens (Human), UniProt O14842)
- PROCEDURE_DETAILS: Inositol Phosphate Turnover (IP1) Assay 1, HEK cells stably expressing human GPR40, 3H-inositol SPA
- Type: cell-based
- MEASUREMENT_SETUP: HEK cells stably expressing human GPR40, 96-well
PROPERTY_NAME: EC50 (nM)

(1) C[C@H](C(=O)O)[C@H](c1cccc(OCC2CC(Oc3ccccn3)C2)c1)C1CC1 (stereo partly shown) [Example 103]
(2) C[C@H](C(=O)O)[C@H](c1cccc(OCC2CCN([C@H](C)c3cc(C(F)(F)F)ccc3C(F)(F)F)C2)c1)C1CC1 (stereo partly shown)
(3) C[C@H](C(=O)O)[C@H](c1cccc(OCC2CC(Oc3ccc4c(c3)COC4=O)C2)c1)C1CC1 (single isomer, unassigned) [Example 107]
Which order do the items above take when sorted by EC50 from high to low? Sort and list the labels as requested.
3, 1, 2
